This section presents compounds with their documented TGI values.
# Test system: K-562 leukemia
# experiment description: NCI tumour cell line growth inhibition, 48 h
measurement type: TGI

compound	measurement type	measured result
O=S(=O)(O)c1ccc(N=Nc2nc(C(F)(F)F)c(C(F)(F)F)[nH]2)cc1	TGI	> 100 µM
O=C(O)C1CC2(C1)CC(C(=O)O)C2 (stereo not given)	TGI	> 100 µM
COC(=O)C1OC2(CCCC3CC32)O[C@H]1C(=O)OC (stereo not given in full)	TGI	> 100 µM
O=C1C=CC(=C(c2ccc(O)cc2)c2ccc(O)cc2)C=C1	TGI	14.2 µM
CCCCCCCCCCCCc1ccc(S(=O)(=O)O)cc1.[Zn+2]	TGI	> 100 µM
Brc1ccc2[nH]cc(-c3nc(-c4c[nH]c5ncccc45)cs3)c2c1	TGI	> 100 µM
O=C(/C=C/c1ccco1)c1ccc(NCc2nc3ccccc3[nH]2)cc1	TGI	40.9 µM
CC(C)CCCC(C)[C@H]1CC[C@H]2[C@@H]3CC[C@H]4C[C@@H](CCC=C(c5cc(Cl)c(O)c(C(=O)OC(C)C)c5)c5cc(Cl)c(O)c(C(=O)OC(C)C)c5)CC[C@]4(C)[C@H]3CC[C@]12C (stereo not given in full)	TGI	> 50 µM
CN(C)c1ccc(/C=C/c2ccc(/C=C/c3ccc(N(C)C)cc3)cc2)cc1	TGI	> 100 µM
CC(=O)NC1C(OCc2ccccc2)OC(CO)C(O)C1OC(C)C(=O)N[C@@H](C)C(=O)N[C@H](CCC(=O)OCCNc1c2ccccc2nc2cccc([N+](=O)[O-])c12)C(N)=O (stereo not given in full)	TGI	> 0.1 µM
COC1=C(C)C(=O)c2c(c(CCCl)c3n2CCC3O)C1=O (stereo not given)	TGI	> 40.7 µM
CC(=O)OC(Cc1ccc2ccccc2n1)(C(F)(F)F)C(F)(F)F	TGI	> 100 µM
O=C1Nc2ccccc2Cn2c1cc1oc(-c3ccccc3)cc12	TGI	> 100 µM
COc1cc(OC)c2nccc(NCCCN(C)C)c2c1[N+](=O)[O-]	TGI	> 100 µM
CCOP(=O)(OCC)C(c1ccccc1)N(C(=O)NC(F)(F)F)c1cccc(F)c1 (stereo not given)	TGI	> 100 µM
Cc1ccc(NC(=O)C2C(=O)N(c3ccc(C)c(C)c3)C(=O)/C2=N\NC(N)=O)cc1C (stereo not given)	TGI	> 100 µM
COC(=O)C1C=CCON2CCc3c(n(C)c4ccccc34)C12 (stereo not given)	TGI	> 100 µM
CC(C)N1CCN(Cc2ccc3c(NNC(=O)c4ccccc4)nc4cc(F)ccc4n23)CC1	TGI	3.87 µM
CCCCCCCC(CC(=O)NC(CO)C(=O)NC(CO)CC(C)C)OC(=O)CC(CCCCCCC)OC(=O)CC(CCCCCCC)OC1OC(C)C(O)C(OC2OC(C)C(O)C(O)C2OC(C)=O)C1O (stereo not given)	TGI	16.8 µM
Clc1ccc(-c2nnc(-c3cccc4ccccc34)o2)cc1Cl	TGI	> 100 µM
